- SUBJECT OF TEST: human integrin αvβ5 (Homo sapiens, UniProt P06756+P18084)
- Sequence (P06756 31-1048): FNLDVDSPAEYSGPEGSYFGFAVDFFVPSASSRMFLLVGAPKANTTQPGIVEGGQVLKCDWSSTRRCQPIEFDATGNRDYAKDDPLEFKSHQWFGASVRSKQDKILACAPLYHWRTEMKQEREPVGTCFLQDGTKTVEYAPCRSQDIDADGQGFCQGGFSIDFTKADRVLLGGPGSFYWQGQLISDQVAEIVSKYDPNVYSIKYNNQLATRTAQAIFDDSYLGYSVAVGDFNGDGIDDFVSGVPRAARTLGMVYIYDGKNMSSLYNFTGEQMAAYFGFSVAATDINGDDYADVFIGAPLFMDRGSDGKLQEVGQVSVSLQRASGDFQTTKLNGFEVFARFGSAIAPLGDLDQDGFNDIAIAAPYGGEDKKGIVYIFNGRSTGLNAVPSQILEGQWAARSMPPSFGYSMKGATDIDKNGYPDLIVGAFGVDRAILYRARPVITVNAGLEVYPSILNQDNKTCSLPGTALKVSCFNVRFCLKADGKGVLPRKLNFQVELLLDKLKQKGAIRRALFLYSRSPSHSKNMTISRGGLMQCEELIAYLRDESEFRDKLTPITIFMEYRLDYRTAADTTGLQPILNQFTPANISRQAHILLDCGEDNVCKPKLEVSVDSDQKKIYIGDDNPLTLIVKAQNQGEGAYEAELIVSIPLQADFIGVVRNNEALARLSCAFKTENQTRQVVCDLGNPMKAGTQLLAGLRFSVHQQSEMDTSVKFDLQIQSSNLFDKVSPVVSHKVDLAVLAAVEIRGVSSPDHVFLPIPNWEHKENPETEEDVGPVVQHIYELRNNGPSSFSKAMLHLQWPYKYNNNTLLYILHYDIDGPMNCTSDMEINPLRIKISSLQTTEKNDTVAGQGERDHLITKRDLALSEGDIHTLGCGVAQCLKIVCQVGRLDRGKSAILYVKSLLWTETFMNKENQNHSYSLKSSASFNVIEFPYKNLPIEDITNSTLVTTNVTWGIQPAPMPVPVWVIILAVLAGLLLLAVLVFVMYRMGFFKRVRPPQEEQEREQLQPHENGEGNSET
- Sequence (P18084 24-799): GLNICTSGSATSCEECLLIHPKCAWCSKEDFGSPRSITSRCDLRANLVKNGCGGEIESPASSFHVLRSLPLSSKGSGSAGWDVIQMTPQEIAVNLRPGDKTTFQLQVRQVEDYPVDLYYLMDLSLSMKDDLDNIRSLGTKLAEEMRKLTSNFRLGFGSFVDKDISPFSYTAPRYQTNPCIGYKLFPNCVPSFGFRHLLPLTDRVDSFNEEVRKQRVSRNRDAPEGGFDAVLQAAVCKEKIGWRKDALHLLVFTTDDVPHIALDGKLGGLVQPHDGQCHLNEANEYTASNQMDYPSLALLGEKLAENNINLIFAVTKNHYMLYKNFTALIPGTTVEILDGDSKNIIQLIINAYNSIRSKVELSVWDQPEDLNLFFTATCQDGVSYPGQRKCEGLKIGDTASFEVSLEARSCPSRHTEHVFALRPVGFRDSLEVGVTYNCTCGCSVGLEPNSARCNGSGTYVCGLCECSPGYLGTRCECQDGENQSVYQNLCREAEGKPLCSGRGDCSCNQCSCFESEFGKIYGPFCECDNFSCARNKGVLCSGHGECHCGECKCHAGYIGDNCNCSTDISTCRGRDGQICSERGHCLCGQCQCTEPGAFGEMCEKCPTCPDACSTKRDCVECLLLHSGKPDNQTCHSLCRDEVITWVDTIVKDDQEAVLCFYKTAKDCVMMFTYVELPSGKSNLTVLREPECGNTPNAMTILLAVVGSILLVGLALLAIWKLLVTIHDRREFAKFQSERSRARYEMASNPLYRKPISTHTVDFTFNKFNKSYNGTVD
- MEASUREMENT PROTOCOL: Evaluation of integrin binding property (surface plasmon resonance, Biacore 3000, immobilized cyclic peptide)
- CONDITION DETAILS: SPR, 25° C., HEPES buffer with 5 mM magnesium chloride, integrin 30-1,000 nM; read-out: Performance evaluation: Binding activity (dissociation constant between the cyclic peptide and human integrin αvβ5)
Starred links: 1 amine or outer side, 2 acyl side, 3 side chain; linkers in the order of their positions; H or OH if unused. Positions of bridges follow the written chain, without caps; N, C: chain ends. Non-standard residues stand in square brackets, D forms with d. Residues, ends and D or L forms follow the SMILES beside them. hCys = N[C@@H](CCS)C(=O)O; Dab = NCC[C@H](N)C(=O)O; X2 = O=C(C[*:1])[*:2]
ENDPOINT LABEL: Kd

Query: Requested read-out: Kd. Entry: CC[C@H](C)[C@@H]1NC(=O)[C@@H](NC(=O)[C@H](CCCCN)NC(=O)[C@H](CCCCN)NC(=O)[C@@H](N)CCCCN)CCSCC(=O)NCC[C@@H](C(=O)O)NC(=O)[C@H](Cc2ccccc2)NC(=O)[C@H](CC(N)=O)NC(=O)[C@H](CC(=O)O)NC(=O)CNC(=O)[C@H](CCCNC(=N)N)NC(=O)[C@@H]2CCCN2C1=O [Cyclic peptide 13, KKK-(Hcy)-IPRGDNF(Dab(acetyl))] (H-KKK[hCys]IPRGDNF[Dab]-OH; linker 4-12 via X2)
Result: < 50 nM

Query: Further, for CC(C)[C@@H]1NC(=O)[C@@H](NC(=O)[C@H](C)NC(=O)[C@H](CCCCN)NC(=O)[C@H](CCCCN)NC(=O)[C@@H](N)CCCCN)CCSCC(=O)NCC[C@@H](C(=O)N[C@@H](C)C(=O)O)NC(=O)[C@H](CCCNC(=N)N)NC(=O)[C@H](Cc2ccccc2)NC(=O)[C@H]([C@@H](C)O)NC(=O)[C@H](CC(=O)O)NC(=O)CNC(=O)[C@H](CCCNC(=N)N)NC(=O)[C@H]([C@@H](C)O)NC1=O [Cyclic peptide 89, KKKA-(Hcy)-VTRGDTFR(Dab(acetyl))A] (H-KKKA[hCys]VTRGDTFR[Dab]A-OH; linker 5-14 via X2) ?
Result: < 50 nM

These measurements were taken from patent US12673975B2.
